biological target: T1, mouse TMEM106B (mouse, UniProt Q80X71 2-275); assay: FACS Neuro2a;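 also: flow cytometry of cells stained with antibody or hybridoma supernatant (purified antibody at 10 µg/ml) for 1 h on ice, propidium iodide–positive dead cells gated out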
T1 construct: on transiently transfected HEK293 cells, or natively expressed on mouse Neuro2a cells; also called moTMEM106B; murine TMEM106B
MFI by entry:

[
  {
    "BINDER": "anti-TMEM106B antibody TM-31 (antibody, V domains shown, mouse IgG from hybridoma) VH: QVQLQQSGAELAKPGASVKVSCKASGYTFISYWMNWVKQRPGQGLEWIGYINPTSGYTRYNQKFKDKATLTADKSSSTAYMQLSSLTYEDSAVYYCARSPPTVVLIGYFDYWGQGTTLTVSS VL: DIKMTQSPSSMYASLGERVTFTCKASQDINSYLSWFQQKPGKSPKTLIYRGNGLVDGVPSRFSGSGSGQDYSLTISSLEYEDMGIYYCLQYDEFPFTFASGTKLEIK",
    "MFI": 325
  },
  {
    "BINDER": "anti-TMEM106B antibody TM-2 (antibody, V domains shown) VH: HIQLVQSGPELKKPGETVKISCKASGYTFTEYPMHWVKQAPGKGFRWMGMIYTNTGEPTYAAEFKGRFAFSLETSASTGYLQINNLKNEDSATYFCVTAGYWGQGTLVTVSA VL: QIVLTQSPAILSASPGEKVTMTCRASSSVSYIHWFLQKPGSSPKPWIYATSNLASGVPFRFIGSGSGTSYSLTISGVEAEDSATYYCQQWSSNPSTFGAGTKLELK",
    "MFI": 2900
  }
]
